target_desc: OsSMF1 (Oryza sativa, UniProt Q6ZLB0 1-436)
Sequence: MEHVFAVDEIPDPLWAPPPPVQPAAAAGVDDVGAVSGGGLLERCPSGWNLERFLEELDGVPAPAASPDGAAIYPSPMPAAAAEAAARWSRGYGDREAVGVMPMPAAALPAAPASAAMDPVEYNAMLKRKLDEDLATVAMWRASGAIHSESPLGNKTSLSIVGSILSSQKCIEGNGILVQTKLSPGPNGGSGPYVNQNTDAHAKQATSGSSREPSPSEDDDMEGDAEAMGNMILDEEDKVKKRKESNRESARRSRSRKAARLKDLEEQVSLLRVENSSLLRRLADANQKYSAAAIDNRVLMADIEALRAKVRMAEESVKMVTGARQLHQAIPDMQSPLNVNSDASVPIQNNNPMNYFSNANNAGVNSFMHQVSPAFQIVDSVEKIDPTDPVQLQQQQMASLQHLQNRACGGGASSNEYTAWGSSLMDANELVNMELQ
assay_notes: protein-binding microarray (RPBM); PBS, 2% BSA, 51.3 ng/ul salmon testes DNA, 50 uM zinc acetate, 200 nM TF, 25 C, 1 h; high values mean tight binding
condition_description: protein: recombinant; tags: N-terminal polyhistidine and DsRed monomer fusion (pET32a); chain copies: 2; label: CyDye5-dUTP incorporated in the synthesized complementary strand; 3' TTTTT single-stranded linker to array surface; dsDNA, one strand shown
Over roughly 39,000 sequences, “fluorescence intensity (a.u.)” has its median near 4,300; the highest 2% begin near 39,000. Many of the other results were omitted from the sample, so the highest values are more common in it than they were.
Listed here are sequences together with their documented binding signal.
value_kind: binding signal

| seq_string | target_desc | assay_value |
| --- | --- | --- |
| TTATTGCAAAATAGAAGGATGACGCCACGACGGCCGCTGCCGGAGTCACCTAGTGCAG | OsSMF1 (Oryza sativa, UniProt Q6ZLB0 1-436) | 3330 fluorescence intensity (a.u.) |
| GGGTTGTGGTTGTTGTACGTTGTTGTTGACGGCGATGGTTCGGAGTCACCTAGTGCAG | OsSMF1 (Oryza sativa, UniProt Q6ZLB0 1-436) | 3460 fluorescence intensity (a.u.) |
| ATGTTTAATCAACCTCTAAATCAATAAGATTAGTCATGTACGGAGTCACCTAGTGCAG | OsSMF1 (Oryza sativa, UniProt Q6ZLB0 1-436) | 3950 fluorescence intensity (a.u.) |
| ATTTGATAAATGGGATGCCACGTGTACACCACGTCAACAGCGGAGTCACCTAGTGCAG | OsSMF1 (Oryza sativa, UniProt Q6ZLB0 1-436) | 31000 fluorescence intensity (a.u.) |
| TGACCTACTTGCACTTATAATTTATAGTATTATGATGTGTCGGAGTCACCTAGTGCAG | OsSMF1 (Oryza sativa, UniProt Q6ZLB0 1-436) | 3290 fluorescence intensity (a.u.) |
| GCGGTTTCCTAGTTGACTGACCAAACAATTCATATATATTCGGAGTCACCTAGTGCAG | OsSMF1 (Oryza sativa, UniProt Q6ZLB0 1-436) | 6140 fluorescence intensity (a.u.) |
| TGAATTGGAGCGACCGTGAGAGGTAGCATAGAATGTCATGCGGAGTCACCTAGTGCAG | OsSMF1 (Oryza sativa, UniProt Q6ZLB0 1-436) | 3270 fluorescence intensity (a.u.) |
| GCCGCGCCGCGCCGTGGCGTGGCGTGGCGTGGCGCGGCCACGGAGTCACCTAGTGCAG | OsSMF1 (Oryza sativa, UniProt Q6ZLB0 1-436) | 6530 fluorescence intensity (a.u.) |
| GTTAGTGCCACGTGGCGCCTTCCCATTCGACCGCCGCCCGCGGAGTCACCTAGTGCAG | OsSMF1 (Oryza sativa, UniProt Q6ZLB0 1-436) | 42100 fluorescence intensity (a.u.) |
| CCTTAGACCTTCTGGATTACATCGTAAGCTGGCTTCTCCTCGGAGTCACCTAGTGCAG | OsSMF1 (Oryza sativa, UniProt Q6ZLB0 1-436) | 3490 fluorescence intensity (a.u.) |
| TGTATTTTCTGACGTTGGTAGCACGGTAGCACCCGATATTCGGAGTCACCTAGTGCAG | OsSMF1 (Oryza sativa, UniProt Q6ZLB0 1-436) | 4250 fluorescence intensity (a.u.) |
| AGTAGCAAAACCTGTTTGTAGAGGAAATTATTATAGTGTTCGGAGTCACCTAGTGCAG | OsSMF1 (Oryza sativa, UniProt Q6ZLB0 1-436) | 53700 fluorescence intensity (a.u.) |
| CGGGAGGGGAGGGGAATGGATGTGGGGAGGAGAGAGACTGCGGAGTCACCTAGTGCAG | OsSMF1 (Oryza sativa, UniProt Q6ZLB0 1-436) | 4600 fluorescence intensity (a.u.) |
| TTATTAAGCCTAATTAATCCATCATTAGTAAATATTTACTCGGAGTCACCTAGTGCAG | OsSMF1 (Oryza sativa, UniProt Q6ZLB0 1-436) | 3780 fluorescence intensity (a.u.) |
| GGGCCTCCCCTCCTCCCTTCGCTGGCGAGAGGACGGAGACCGGAGTCACCTAGTGCAG | OsSMF1 (Oryza sativa, UniProt Q6ZLB0 1-436) | 3400 fluorescence intensity (a.u.) |
| AAAGCGTTCCGCGGCGCCGCCGTGGCGTCCGGCGTCCGGCCGGAGTCACCTAGTGCAG | OsSMF1 (Oryza sativa, UniProt Q6ZLB0 1-436) | 3900 fluorescence intensity (a.u.) |
| TCCATTAAGCCTCCGTTTAGTAAAGATAAAGATTGGTCAACGGAGTCACCTAGTGCAG | OsSMF1 (Oryza sativa, UniProt Q6ZLB0 1-436) | 44200 fluorescence intensity (a.u.) |
| CGCCTTCGTCCCATCTCGACCGTCCACGTGTGGCCCATCCCGGAGTCACCTAGTGCAG | OsSMF1 (Oryza sativa, UniProt Q6ZLB0 1-436) | 8200 fluorescence intensity (a.u.) |
| TATGAAACCTGAAAACAACTTAACACGGGTGTCCTTCGTCCGGAGTCACCTAGTGCAG | OsSMF1 (Oryza sativa, UniProt Q6ZLB0 1-436) | 17500 fluorescence intensity (a.u.) |
